# System: PPARa:RXRa (NR concentration 270 nM, RXRa partner concentration 90 nM)
# experiment summary: PBM binding z-score (relative to random genomic background probes); higher = stronger binding; sequences stand for … in GC…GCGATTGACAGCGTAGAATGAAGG
If the reported PBM binding z-score equals or exceeds 4, assign met. If not, assign not met.

[[record]]
seq_string = "CGAACTAGGTCATCCGGGACAGTGAATACATTGA"
class_label = "met"


Exam item: decide whether the reported PBM binding z-score for ACTTACGAGTCAACGAGGTTATAGCACGCGTATA is at least 4.
not met

Exam item: decide whether the reported PBM binding z-score for TAACCTAGGTCATGGGCCAGTATACCACGCGAAC is at least 4.
met

Exam item: decide whether the reported PBM binding z-score for CCGACTGGGGCATAAGATTACCATAAGCCAGCCC is at least 4.
not met

Exam item: decide whether the reported PBM binding z-score for AGAACGAGGTTATACGTAGATCAGGGAAGAAAGT is at least 4.
not met

Exam item: decide whether the reported PBM binding z-score for TTAGACAGGTGAAGGTAACTCAGGTACGCAGTCG is at least 4.
not met

Exam item: decide whether the reported PBM binding z-score for ATCTCTAGGTAAAGATAGTTCAGTGACTGCAAAT is at least 4.
not met

Exam item: decide whether the reported PBM binding z-score for CAAACTAGGTCACCGGCAGGTCAAAGTCCGCATG is at least 4.
met

// data source = the supplement of paper PMC6555819
